The following compounds are listed with their measured pIC50 values.
# tested.system: GSK3α (GST-full length GSK3α) (Homo sapiens (Human))
# test.details: GSK3α TR-FRET kinase assay
# Format: biochemical
# experimental.conditions: 1 nM GSK3α, 4 μM ATP, 30 minute preincubation; geometric mean; read-out: GSK3-A TR-FRET BIOCHEMICAL (TR-FRET); GMean; IC50
pIC50: −log10 of the molar value.

Known pIC50 results, listed for orientation:
Data point: CCC1(c2cccc(-c3cnn(C)c3)c2)C2=C(CC(C)(C)NC2=O)Nc2n[nH]c(C(F)F)c21 (stereo not shown) [Compound 949171] ; pIC50 = ≥ 7.00

Data point: CCC1(c2cccc(-c3ccnc(C)c3)c2)C2=C(CC(C)(COC)NC2=O)Nc2n[nH]cc21 (stereo not shown) [Compound 948493] ; pIC50 = < 5.30

Data point: CCC1(c2cccc(-c3ccnn3C)c2)C2=C(CC3(CCOCC3)NC2=O)Nc2n[nH]cc21 (stereo not shown) [Compound 948516] ; pIC50 = ≥ 7.00

Next compound, please.
Data point: CC[C@]1(c2cccc(N(C)c3ncccn3)c2)C2=C(CC(C)(C)NC2=O)Nc2n[nH]cc21 [Compound 947826] ; pIC50 = ≥ 7.00

###

# tested.system: GSK3α (GST-full length GSK3α) (Homo sapiens (Human), UniProt P49840)
# Sequence (P49840 whole entry): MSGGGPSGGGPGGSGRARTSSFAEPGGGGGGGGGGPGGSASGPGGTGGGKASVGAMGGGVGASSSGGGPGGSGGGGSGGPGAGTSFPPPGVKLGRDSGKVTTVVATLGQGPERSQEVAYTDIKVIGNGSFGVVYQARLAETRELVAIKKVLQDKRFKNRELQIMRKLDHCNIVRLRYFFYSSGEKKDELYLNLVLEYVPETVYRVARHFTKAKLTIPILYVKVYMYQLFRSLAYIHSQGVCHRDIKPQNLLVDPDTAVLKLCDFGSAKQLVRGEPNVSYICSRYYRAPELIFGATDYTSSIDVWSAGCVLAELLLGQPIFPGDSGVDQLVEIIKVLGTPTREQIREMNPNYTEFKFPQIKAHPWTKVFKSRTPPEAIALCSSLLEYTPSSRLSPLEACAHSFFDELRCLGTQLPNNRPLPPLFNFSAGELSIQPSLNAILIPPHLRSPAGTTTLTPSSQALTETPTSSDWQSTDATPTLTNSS
# test.details: GSK3α TR-FRET kinase assay
# Assay type: biochemical
# experimental.conditions: 1 nM GSK3α, 4 μM ATP, 30 minute preincubation; geometric mean; read-out: GSK3-A TR-FRET BIOCHEMICAL (TR-FRET); GMean; IC50
outcome.measure: IC50

Known IC50 results, listed for orientation:
Observed IC50, GSK3α (GST-full length GSK3α) (Homo sapiens (Human), UniProt P49840), CC[C@]1(c2ccccc2)C2=C(C[C@H](C)CC2=O)Nc2n[nH]cc21 [Compound 789011] : > 5000 nM

Observed IC50, GSK3α (GST-full length GSK3α) (Homo sapiens (Human), UniProt P49840), CCC1(c2cccc(-c3ccnn3C)c2)C2=C(CC(C)(COC)NC2=O)Nc2n[nH]cc21 (centres unmarked) [Compound 947907] : 1000 to 5000 nM

Observed IC50, GSK3α (GST-full length GSK3α) (Homo sapiens (Human), UniProt P49840), CC1(C)CC(=O)C2=C(C1)Nc1n[nH]cc1[C@@]2(C)c1cc(C(F)(F)F)ccc1F : 1000 to 5000 nM

Observed IC50, GSK3α (GST-full length GSK3α) (Homo sapiens (Human), UniProt P49840), COc1cccc(C2(C)C3=C(CC(C)(C)CC3=O)Nc3n[nH]cc32)c1 (centres unmarked) : 100 to 1000 nM

Observed IC50, GSK3α (GST-full length GSK3α) (Homo sapiens (Human), UniProt P49840), CCC1(c2cccc(S(=O)(=O)C(C)C)c2)C2=C(CC(C)(C)NC2=O)Nc2n[nH]c(C)c21 (centres unmarked) : ≤ 100 nM

Further cases:
Observed IC50, GSK3α (GST-full length GSK3α) (Homo sapiens (Human), UniProt P49840), CCC1(c2cccc(N3CCOCC3)c2)C2=C(CC(C)(C)CC2=O)Nc2n[nH]cc21 (centres unmarked) : 100 to 1000 nM

Observed IC50, GSK3α (GST-full length GSK3α) (Homo sapiens (Human), UniProt P49840), CCC1(c2cccc(C(F)(F)F)c2)C2=C(Nc3n[nH]cc31)C(F)C(C)(C)CC2=O (single isomer, unassigned) [Compound 837683] : ≤ 100 nM

Observed IC50, GSK3α (GST-full length GSK3α) (Homo sapiens (Human), UniProt P49840), CCC1(c2cccc(-c3ccnn3C)c2)C2=C(CC3(CCOC3)NC2=O)Nc2n[nH]cc21 (centres unmarked) [Compound 948014] : 100 to 1000 nM

Observed IC50, GSK3α (GST-full length GSK3α) (Homo sapiens (Human), UniProt P49840), CC1(C)CC(=O)C2=C(C1)Nc1n[nH]cc1C2(C)c1cc(C(F)(F)F)ccc1F (centres unmarked) : ≤ 100 nM

Observed IC50, GSK3α (GST-full length GSK3α) (Homo sapiens (Human), UniProt P49840), CCC1(c2cccc(Cl)c2)C2=C(CC(C)(C)CC2=O)Nc2n[nH]c(C(F)(F)F)c21 (centres unmarked) : 1000 to 5000 nM

Observed IC50, GSK3α (GST-full length GSK3α) (Homo sapiens (Human), UniProt P49840), CC1(C)CC(=O)C2=C(C1)Nc1n[nH]cc1C21CCc2c(F)cccc21 (centres unmarked) : 100 to 1000 nM

Observed IC50, GSK3α (GST-full length GSK3α) (Homo sapiens (Human), UniProt P49840), CCC1(c2cccc(N(C)c3ncccn3)c2)C2=C(CC(C)(C)NC2=O)Nc2n[nH]c(C)c21 (centres unmarked) : ≤ 100 nM

Observed IC50, GSK3α (GST-full length GSK3α) (Homo sapiens (Human), UniProt P49840), CC[C@@]1(c2cccc(-c3ccncc3C)c2)C2=C(CC(C)(C)NC2=O)Nc2n[nH]c(C)c21 : ≤ 100 nM

Observed IC50, GSK3α (GST-full length GSK3α) (Homo sapiens (Human), UniProt P49840), CC[C@]1(c2ccccc2)C2=C(C[C@H](C)CC2=O)Nc2n[nH]cc21 [Compound 789013] : 100 to 1000 nM

Observed IC50, GSK3α (GST-full length GSK3α) (Homo sapiens (Human), UniProt P49840), CC[C@@]1(c2cccc(-c3cnn4c3CCCC4)c2)C2=C(CC(C)(C)NC2=O)Nc2[nH]nc(C(F)(F)F)c21 : ≤ 100 nM

Observed IC50, GSK3α (GST-full length GSK3α) (Homo sapiens (Human), UniProt P49840), CCC1(c2cccc(-c3ccnc(C)c3F)c2)C2=C(CC(C)(C)NC2=O)Nc2n[nH]c(C)c21 (centres unmarked) [Compound 947563] : ≤ 100 nM

Observed IC50, GSK3α (GST-full length GSK3α) (Homo sapiens (Human), UniProt P49840), CC[C@]1(c2cccc(-c3cnn(C)c3)c2)C2=C(CC(C)(C)NC2=O)Nc2n[nH]c(F)c21 : 1000 to 5000 nM

Observed IC50, GSK3α (GST-full length GSK3α) (Homo sapiens (Human), UniProt P49840), CCC1(c2cccc(-c3cnn(C)c3)c2)C2=C(CC(C)CC2=O)Nc2n[nH]cc21 (centres unmarked) [Compound 823726] : > 5000 nM

Observed IC50, GSK3α (GST-full length GSK3α) (Homo sapiens (Human), UniProt P49840), CC[C@@]1(c2ccccc2)C2=C(C[C@](C)(C(F)(F)F)CC2=O)Nc2n[nH]cc21 : 100 to 1000 nM

Observed IC50, GSK3α (GST-full length GSK3α) (Homo sapiens (Human), UniProt P49840), CC[C@]1(c2cccc(C(F)(F)F)c2)C2=C(CCN(c3ccc(OC)cc3)C2=O)Nc2n[nH]cc21 : 1000 to 5000 nM

Observed IC50, GSK3α (GST-full length GSK3α) (Homo sapiens (Human), UniProt P49840), CC[C@]1(c2cccc(N(C)c3ncccn3)c2)C2=C(CC(C)(C)NC2=O)Nc2n[nH]cc21 [Compound 949179] : 100 to 1000 nM

Observed IC50, GSK3α (GST-full length GSK3α) (Homo sapiens (Human), UniProt P49840), CCC1(c2cccc(N3CCN(C)CC3)c2)C2=C(CC(C)(C)CC2=O)Nc2n[nH]cc21 (centres unmarked) : > 1670 nM
